Tested on: RXF 393 renal
procedure_text: NCI tumour cell line growth inhibition, 48 h
Parameter TGI: see the listing below.

Example results:
CO/C(=N\N=C\c1ccc(Cl)cc1)c1ccncc1; > 100 µM
Brc1ccc2c(-c3nc(-c4c[nH]c5ccccc45)cs3)c[nH]c2c1; > 68.7 µM

[Q] Record lookup: for RXF 393 renal, what TGI belongs to N/C(=N\N=C\c1ccc2c(c1)OCO2)NO ?
[A] > 100 µM

[Q] Now the same for CCOC(=O)C(=[N+]=[N-])C(=O)C[N+]12CCN(CC1)CC2
[A] > 100 µM

[Q] Continue with COC(=O)C1=Cc2cc3c(cc2[C@H](c2ccc4c(c2)OCO4)C1C(=O)OC)OCO3 (stereo partly specified)
[A] > 100 µM

[Q] Next compound up: CN(C)CCCn1c(Cc2ccccc2)nc2cc(C(F)(F)F)ccc21
[A] 67.8 µM

[Q] Proceed to COc1c(-c2cc(C)c(Cl)c(=O)[nH]2)c(O)c(OC)c2occc12
[A] > 100 µM

[Q] Also check CCNC(=S)N/N=C/c1cc(OC)ccc1O
[A] > 100 µM

[Q] Do the same for CCOC(=O)c1cc2c(n1Cc1cccc(OC)c1)-c1oncc1CC2 please
[A] 35.9 µM
